Let's look at some compounds and their measured Ratio Ki.
- Test system: HEK293
- Measurement Notes: Selectivity ratio of Ki for human 5-HT1A receptor to Ki for human 5-HT7B receptor expressed in HEK293 cells
- Assay type: cell-based
A bare number is all that is needed in reply.

Use these answered entries as a reference point.
- Sample Smiles: "CC(C)c1ccccc1OCCN1CCC(NS(=O)(=O)c2cc(F)ccc2F)CC1"
  Ratio Ki: 26
- Sample Smiles: "CC(C)c1ccccc1OCCN1CCC(NS(=O)(=O)c2ccc(F)c(F)c2)CC1"
  Ratio Ki: 14
- Sample Smiles: "CC(C)CS(=O)(=O)NC1CCN(CCOc2ccccc2C(C)C)CC1"
  Ratio Ki: 1

Fill blank: measured Ratio Ki of the compound `CC(C)c1ccccc1OCCN1CCC(NS(=O)(=O)c2ccccc2)CC1` is ____.
6

Cited source for all entries: ChEMBL document CHEMBL3739404
